Hi there, I'd appreciate the recorded IC50 for every entry that follows.
target: human 20S immunoproteasome (i20S) (Homo sapiens, UniProt P28062); assay: 20S proteasome assay, chymotrypsin-like activity (succinyl-Leu-Leu-Val-Tyr-AMC), i20S; assay type: biochemical; conditions: LLVY substrate, 1 h continuous
Dear colleague, please return just the value in nM, with no unit written.

So what does the record say about IC50 for `COc1ccc(C[C@H](NC(=O)[C@H](C)NC(=O)CN2CCOCC2)C(=O)N[C@@H](C[C@@H]2CCC(F)(F)C2)C(=O)[C@@]2(C)CO2)cc1` ?
3100

Given `COc1ccc(C[C@H](NC(=O)[C@@H](C)NC(=O)[C@H]2CC[C@H](O)CC2)C(=O)N[C@@H](CC2=CCCC2)C(=O)[C@@]2(C)CO2)cc1` , state its recorded IC50.
5.3

I am curious: what IC50 value has been reported for `COc1ccc(C[C@H](NC(=O)[C@H](C)NC(=O)CN2CCOCC2)C(=O)N[C@@H](Cc2ccc(O)cc2)C(=O)[C@@]2(C)CO2)cc1` ?
27.9

Quick one: IC50 of `COc1ccc(C[C@H](NC(=O)[C@H](C)NC(=O)CN2CCCC(F)(F)C2)C(=O)N[C@@H](CC2CCCC2)C(=O)[C@@]2(C)CO2)cc1` ?
251

Reported IC50 for `COc1ccc(C[C@H](NC(=O)[C@@H](C)NC(=O)[C@@H]2CCCOC2)C(=O)N[C@@H](CC2CCCC2)C(=O)[C@@]2(C)CO2)cc1` : what is it?
44.5

Consider the compound `COc1ccc(C[C@H](NC(=O)[C@@H](C)NC(=O)C2CCCC2)C(=O)N[C@@H](CC2CCCC2)C(=O)[C@@]2(C)CO2)cc1` and give its measured IC50.
144
